Item-by-item account of log10 Kb
Molecular target: α-1B adrenoreceptor (Rattus norvegicus)
Construct: from tissue; host or cells: rat spleen
Sequence (P15823 1-515): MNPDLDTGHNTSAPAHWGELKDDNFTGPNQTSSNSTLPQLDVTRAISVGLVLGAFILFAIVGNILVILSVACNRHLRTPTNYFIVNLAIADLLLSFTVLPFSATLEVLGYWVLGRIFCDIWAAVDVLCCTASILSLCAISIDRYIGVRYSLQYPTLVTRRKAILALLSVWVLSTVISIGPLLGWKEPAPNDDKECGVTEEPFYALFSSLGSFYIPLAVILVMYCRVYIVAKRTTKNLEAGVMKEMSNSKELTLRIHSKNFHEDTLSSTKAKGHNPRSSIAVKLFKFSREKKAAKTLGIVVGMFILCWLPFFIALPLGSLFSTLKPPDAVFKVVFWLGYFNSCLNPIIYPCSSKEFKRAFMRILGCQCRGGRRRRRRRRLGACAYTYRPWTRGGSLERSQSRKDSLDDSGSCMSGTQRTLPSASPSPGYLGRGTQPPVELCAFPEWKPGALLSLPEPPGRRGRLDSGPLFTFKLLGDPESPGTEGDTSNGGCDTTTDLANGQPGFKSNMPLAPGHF
Assay: cell-based
Details: phenylephrine-induced contraction; Schild plot; read-out: In Vitro Characterization (pA2) Rat Spleen (converted)
Where a name gives a salt, the structure may show the parent alone.
Friendly reminder: values = log10 of Kb, unit nM.

These recorded examples may help you get a feel for the data.
>>> readout_number("COc1cc2[nH]c(=O)n(CCCCN3C[C@@H]4COc5ccccc5[C@@H]4C3)c(=O)c2cc1OC (racemic) [Example 81, hydrochloride]")
1.59
>>> readout_number("O=c1[nH]c2c(sc3cccnc32)c(=O)n1CCCCN1C[C@@H]2COc3ccccc3[C@@H]2C1 (racemic) [Example 70, dihydrochloride]")
1.94
>>> readout_number("COc1cccc2c1[C@@H]1CN(CCCCn3c(=O)[nH]c4c(sc5ccc(Cl)nc54)c3=O)C[C@@H]1CO2 [Example 37, hydrochloride]")
0.97
>>> readout_number("COc1cnc2sc3c(=O)n(CCCCN4C[C@@H]5COc6cccc(OC)c6[C@@H]5C4)c(=O)[nH]c3c2n1 [Example 31, hydrochloride]")
1.15
>>> readout_number("COc1cccc2c1[C@@H]1CN(CCCCn3c(=O)[nH]c4c(sc5c(OC)ccnc54)c3=O)C[C@H]1CO2 [Example 17, dihydrochloride]")
1.04
>>> readout_number("COc1cccc2c1[C@@H]1CN(CCCCn3c(=O)[nH]c4c(sc5nc(-c6ccccc6)cnc54)c3=O)C[C@@H]1CO2 [Example 40, hydrochloride]")
2.88
>>> readout_number("COc1cccc2c1[C@@H]1CCN(CCCCn3c(=O)[nH]c4c(sc5ncc(Cl)nc54)c3=O)C[C@H]1CO2 [Example 97, dihydrochloride]")
1.24
>>> readout_number("COc1cccc2c1OC[C@H]1CN(CCn3c(=O)[nH]c4c(sc5ccccc54)c3=O)C[C@@H]21.Cl (racemic) [Example 67, hydrochloride]")
2.17
>>> readout_number("COc1ccc2sc3c(=O)n(CCCCN4C[C@@H]5COc6cccc(OC)c6[C@@H]5C4)c(=O)[nH]c3c2n1 [Example 30, hydrochloride]")
1.33

I'd like to know its log10 Kb. The compound in question is COc1cccc2c1[C@@H]1CN(CCCCn3c(=O)[nH]c4c(sc5cnccc54)c3=O)C[C@H]1CO2 [Example 42, dihydrochloride]
0.44
